Tested on: hsa-mir-21 loop
METHOD DESCRIPTION: normalised indicator fluorescence (fraction of RNA + indicator signal without compound); higher = less displacement of indicator (weaker competition)
EXPERIMENTAL PARAMETERS: compound concentration: 5 uM; 30 min; indicator: TO-PRO-3 0.5 uM; RNA concentration: 0.5 uM
Counter-ions that a name gives are not always drawn.
Give normalised indicator fluorescence for every item shown.
Reply briefly: the number, and no unit.

Give hsa-mir-21 loop normalised indicator fluorescence for COc1ccc(C(=C2C(=O)Nc3ccccc32)c2ccc(OC)cc2)cc1
1.03

What about CC(C)c1cc(-c2n[nH]c(=O)n2-c2ccc3c(ccn3C)c2)c(O)cc1O ?
1.04

What about CCc1cc(C(N)=S)ccn1 [Ethinamide] ?
1.04

What about Cc1cc(NC(=O)c2cccc(NC(=O)/C=C/CN(C)C)c2)ccc1Nc1nccc(-c2cccnc2)n1 ?
1.01

What about COc1ccc(C2CC(=O)c3c(O)cc(OC4OC(COC5OC(C)C(O)C(O)C5O)C(O)C(O)C4O)cc3O2)cc1OC (configuration not stated) ?
0.97

What about COc1ccc(O)cc1 ?
1.05

What about CC(C)c1cc(C(C)C)c(CC(=O)NS(=O)(=O)Oc2c(C(C)C)cccc2C(C)C)c(C(C)C)c1 ?
1.08

What about Cn1cc(C2=C(c3cn(CCCSC(=N)N)c4ccccc34)C(=O)NC2=O)c2ccccc21 [Ro 31-8220 Mesylate] ?
0.929

What about O=c1ccc2ccc(O)cc2o1 [7-Hydroxycoumarin] ?
0.997

What about COC1=C(OC)C(=O)C(CCCCCCCCCCO)=C(C)C1=O ?
1.04

What about COc1ccc([C@@H]2OC[C@H]3[C@@H]2CO[C@@H]3c2ccc(O[C@@H]3O[C@H](CO)[C@@H](O)[C@H](O)[C@H]3O)c(OC)c2)cc1OC ?
0.988

What about O=C(COc1ccc(Cl)cc1)NC1CCC(NC(=O)COc2ccc(Cl)cc2)CC1 (configuration not stated) ?
1.03

What about C/C1=C/CC[C@H](C)C(=O)C[C@@H](C(C)C)C(=O)C1 ?
1.09

What about COc1ccc(-c2coc3cc(O)ccc3c2=O)cc1O ?
1.06

What about CC(C)(O)[C@@H]1CC[C@](C)([C@H]2[C@@H](O)C[C@@]3(C)[C@@H]4C[C@H](O)[C@H]5C(C)(C)[C@@H](O[C@@H]6OC[C@@H](O)[C@H](O)[C@H]6O[C@@H]6O[C@H](CO)[C@@H](O)[C@H](O)[C@H]6O)CC[C@@]56C[C@@]46CC[C@]23C)O1 [Astragaloside III] ?
1.02

What about CCc1oc2ccccc2c1C(=O)c1cc(Br)c(O)c(Br)c1 ?
1.05

What about NC(=O)c1ccccc1Nc1ccnc(Nc2cccc(O)c2)n1 ?
1.02
